Provenance of the data: the supplement of paper PMC10126150

# Test system: ATP;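 further: ATP exposure 15 min at 22 °C before imaging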
# Experiment Description: switch fluorescence ratio, 500 uM ATP over buffer (Cy3 cluster intensity, sum of 5 cycles each) (fold (ratio)); higher = stronger signal-on switching upon ATP binding; sequences stand for … in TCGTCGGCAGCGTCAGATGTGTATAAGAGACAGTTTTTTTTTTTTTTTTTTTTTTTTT…TC
# Reported Conditions: aptamer strand: ATP DNA aptamer (quencher-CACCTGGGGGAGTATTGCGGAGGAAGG + anchor), 100 nM annealed; ATP concentration: 500 uM
Measured Attribute: switch fluorescence ratio
Lab note: record just the number, no unit beside it.

Data point: "AAGTCAATGT" ; switch fluorescence ratio = 1.01

Record "TTTTGAGGGC" . Reported switch fluorescence ratio: 1.01

# switch fluorescence ratio (sequence: "ACGAGAAGTT" ) is 1.1

Notebook: "CAGTCGTCGA" , switch fluorescence ratio read as 1

The measured switch fluorescence ratio associated with "CGTATTTTAC" reads 1.08

The recorded switch fluorescence ratio for "AGTAATGTTT" is 0.994

Kindly note the recorded switch fluorescence ratio for "GAAGTCGTT" , which is 0.973

# switch fluorescence ratio of "TACGCTATAA" = 2.82

According to the records, this sequence "TAGAATGTGT" displays switch fluorescence ratio of 1.03

switch fluorescence ratio reported for this sequence "ATTTTTTTAG" : 0.988

Per the record, "CTATTTAGTC" has switch fluorescence ratio of 0.95

Kindly note the recorded switch fluorescence ratio for "GGACTACCTG" , which is 1.01

Lab book: switch fluorescence ratio of "TATCACATTG" noted as 0.992

// switch fluorescence ratio lookup, sequence = "TCGGCCTGCT" , result: 1.01

switch fluorescence ratio recorded for this sequence, "GCTAGAAATG" , is 0.978

Memo: "AATAAACAAA" , reported switch fluorescence ratio: 0.978

Entry "TAGGCGAGTT" ; switch fluorescence ratio = 0.98

"GGTACTACGG" has a reported switch fluorescence ratio of 1.05

Measured switch fluorescence ratio, "GGTCCTTAGG" : 1

Measured switch fluorescence ratio of "TTTTTATGAG" : 1

Short answer for "CAGAAAGATA" : switch fluorescence ratio was 0.997

Lab note: measured switch fluorescence ratio of "GTCTGTATGT" was 1.01

Lab note: measured switch fluorescence ratio of "ATGGATGTTA" was 0.978

Value of switch fluorescence ratio reported for the sequence "CATTTTTGGC" is 1.03

Record "ACTATATGAT" , field switch fluorescence ratio: 1.08

Value of measured switch fluorescence ratio for the entry "CTGTCGGGCG" : 1.02

Entry "ATTTACAAGT" ; switch fluorescence ratio = 1

Note to self: switch fluorescence ratio recorded for "ACTGGGAGTG" was 1

Notebook: "CGTAGGGTTA" , switch fluorescence ratio read as 1.01

Memo: "CACTAGTAGA" , reported switch fluorescence ratio: 1.03

So for "ACCGGTGTTC" , the logged switch fluorescence ratio turned out to be 1.02

The sequence listed as "GCGGAGAGTT" has a reported switch fluorescence ratio of 1.01

Just so you know, measured switch fluorescence ratio for "AGGTGGTTTT" came out at 1.01

According to the records, this sequence "GGATATTTTT" displays switch fluorescence ratio of 1.01

The reported switch fluorescence ratio of the sequence "GGGTTTGTCA" was 1.02

The recorded switch fluorescence ratio for "CATTCGTCGG" is 1.04

// field: switch fluorescence ratio; key: "GAACGGAATT" ; value = 1.19

The sequence "GCGCGATATT" showed switch fluorescence ratio equal to 2.17

Sample "GGGTTTCAAG" ; switch fluorescence ratio observed: 1.05

Memo: "TTGGAAAGGT" , reported switch fluorescence ratio: 1.1

In plain terms, "GTTTCGAGGT" has a documented switch fluorescence ratio of 0.96

The recorded switch fluorescence ratio for entry "AAAGGGCGTG" equals 0.985

The sequence listed as "GATGGGTG" shows switch fluorescence ratio equal to 1.03
